- System: c-Src
- Assay Comment: phosphorylation enrichment, bacterial display (enrichment ratio); higher = better substrate or ligand; peptides without Tyr show the background;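 further: 11-residue human phosphosite peptides and single-mutation variants displayed on the E. coli surface, counted by deep sequencing, each peptide's frequency after selection divided by its frequency in the unselected input library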;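 further: frequency after pTyr selection over input frequency; kinase dosed for 20-30% of maximal phosphorylation in three min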
Kindly return Fulfilled if reported phosphorylation enrichment is no lower than 0.5; return Not fulfilled if it is lower.

Chain	Classification
CTTIHYTFMCN [TP53_Y234_N235T_YF]	Fulfilled
PTTKTYFLHFD [HBA1_Y43_P45L]	Fulfilled
GYRVYYTPDSR [PTPRF_Y451]	Fulfilled
LTERGYSFTTK [ACTG1_Y198_T203K]	Fulfilled
HGVSSYDTIIS [LDLR_Y465_V468I]	Fulfilled
TLKDVYDDGKF [RPS6KA3_Y483_YF]	Fulfilled
AFSTVYKGLWI [EGFR_Y727_G724S]	Not fulfilled
DRPASYLDKVR [KRT17_Y98_L95P]	Not fulfilled
LARHMYDKEYY [MET_Y1230_D1228H]	Fulfilled
KPMDTYYDSTR [DYNC2H1_Y2230]	Fulfilled
KELAPYDENRF [RPS19_Y48_W52R]	Fulfilled
RLLCEYQELMN [KRT75_Y434_R432C]	Fulfilled
FRTGHYLCNAC [GATA1_Y223_D218Y_YF]	Not fulfilled
GCVSKYSGVFS [TUBGCP6_Y1624]	Not fulfilled
LSSNLYYRWLT [CNGA3_Y168_P163L]	Fulfilled
RRIEKYVDQGK [IRAK3_Y61_H57R]	Not fulfilled
RSFLSYFTSHV [NEFL_Y442_P440L_YF]	Fulfilled
IQKKYYRAILE [CHD7_Y1218]	Not fulfilled
DLAGRYFALKS [CKB_Y173_YF]	Fulfilled
GELQGYDIMEP [MSH2_Y863_S860L]	Not fulfilled
IKIMGSSIRTI [IDS_Y490_Y490S]	Not fulfilled
PLLEYYRDIFT [CDAN1_Y713]	Fulfilled
GLTSTYAGIRK [ROBO1_Y932]	Fulfilled
PLDGEYFTLQV [TP53_Y327_I332V]	Fulfilled
SADIAYNFRHG [PAH_Y166_F161S_YF]	Not fulfilled
EIPTQYEAMAS [GFAP_Y242_R239P]	Not fulfilled
TDEFEYDELIV [TGM1_Y136_YF]	Fulfilled
CGTPDYIAPEI [PRKCG_Y521]	Not fulfilled
SDYSRYARTSI [TERT_Y949_S948R]	Not fulfilled
EVGRVYLFLQP [ITGA2B_Y360]	Not fulfilled
GKTQQYECKWY [BCR_Y751_D752E]	Fulfilled
AHLTEYLSTHF [UQCRC1_Y219_D215H_YF]	Fulfilled
IDGLEYLHSQG [STK11_Y166]	Not fulfilled
FGVTLYPNSRE [MEP1A_Y472]	Fulfilled
NIEPIYLNMLL [ATR_Y317_V316I]	Fulfilled
VVQGIYGYHHH [UFSP2_Y285_Y290H]	Fulfilled
CTLLPYFSAPV [DGKE_Y269_R273P_YF]	Fulfilled
QADVIYVNTQL [MERTK_Y872]	Fulfilled
YGAHNYHPLPV [OAT_Y55]	Fulfilled
EEQKKYFNAVK [SCN5A_Y1494_M1498V_YF]	Not fulfilled
SRDTCYLVLAV [AMH_Y195_R194C]	Fulfilled
LVKDPYVMFPQ [PLEKHG2_Y489_P484L]	Fulfilled
CDDGKYVYVVT [RPS6KA3_Y488_Y483C]	Fulfilled
LCRYGYANTSE [SI_Y1233]	Fulfilled
ISSLRYELLEE [TRPC6_Y896]	Not fulfilled
TFYQMYDKGLV [IARS2_Y231]	Fulfilled
EADRKYEEVAR [TPM3_Y163]	Fulfilled
NHFKIYNPCAE [PTEN_Y68_L70P_YF]	Not fulfilled
DMDATYRPMFS [JUP_Y701_YF]	Fulfilled
SMVVPYEPPEV [TP53_Y220_V216M]	Fulfilled
ADLLDYIKALN [HPRT1_Y81]	Not fulfilled
VEGISYDFIPT [CBS_Y308_G307S]	Fulfilled
RIDPDYVGRVR [IGSF9_Y81]	Fulfilled

---

# key: entry, value: phosphorylation enrichment
- System: AncSZ
- Assay Comment: phosphorylation enrichment, bacterial display (enrichment ratio); higher = better substrate or ligand; peptides without Tyr show the background
Quantity: phosphorylation enrichment

Chain	Tested Target	Result
ESTPLYPMLFG [SCLY_Y280_F276S]	AncSZ	0.768
LHAAAYWNALA [UQCRC2_Y182_R183W]	AncSZ	0.769
QDEHGYISLCF [HSPB1_Y133_R136L]	AncSZ	2.22
MHRRQYELLGG [GNAS_Y391_L388R]	AncSZ	0.577
LSKDLYLISQM [LARP4_Y141]	AncSZ	1.78
YENGEYIIRQG [PRKG1_Y247]	AncSZ	1.11
EVLKNYSQQKD [GOLGA4_Y1551_N1552S]	AncSZ	0.545
AHLTEYLSTHF [UQCRC1_Y219_D215H_YF]	AncSZ	0.902
IIGNGYYFHVF [MYBPC3_Y1135_R1138H]	AncSZ	0.946
LVPAWYIGFLC [KCNQ2_Y237_T234P]	AncSZ	1.25
LVTCSYLLGNS [LMNA_Y646_R644C]	AncSZ	2.16
GLRYGYGGLGG [KRTAP20-2_Y15_V17G]	AncSZ	0.507
PVRIAYDRPRG [SUGP2_Y985]	AncSZ	0.923

---

- Tested Target: Fyn (UniProt P06241)
- Sequence (P06241 whole entry, looked up): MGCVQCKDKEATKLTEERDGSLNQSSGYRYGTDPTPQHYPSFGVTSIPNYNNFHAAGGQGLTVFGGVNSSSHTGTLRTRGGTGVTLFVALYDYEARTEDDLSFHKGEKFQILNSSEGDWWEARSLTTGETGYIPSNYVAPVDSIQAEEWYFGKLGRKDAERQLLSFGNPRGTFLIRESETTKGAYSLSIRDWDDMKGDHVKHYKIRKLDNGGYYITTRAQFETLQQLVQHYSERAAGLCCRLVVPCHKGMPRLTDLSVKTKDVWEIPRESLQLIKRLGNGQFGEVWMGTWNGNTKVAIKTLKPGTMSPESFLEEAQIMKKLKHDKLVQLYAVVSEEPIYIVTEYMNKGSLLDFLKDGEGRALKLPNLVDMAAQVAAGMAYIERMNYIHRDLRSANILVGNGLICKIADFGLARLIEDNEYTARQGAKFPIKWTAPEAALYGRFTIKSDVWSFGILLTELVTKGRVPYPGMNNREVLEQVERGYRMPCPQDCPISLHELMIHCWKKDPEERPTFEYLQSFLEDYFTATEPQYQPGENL
- Assay Comment: phosphorylation enrichment, bacterial display (enrichment ratio); higher = better substrate or ligand; peptides without Tyr show the background
Assign class by phosphorylation enrichment: not lower than 0.4 means Satisfied; lower than 0.4 means Not satisfied.

Chain	Classification
MTKEQYIKMNQ [ARFGEF2_Y797_R802Q]	Not satisfied
PSFSEYASVQV [SIRPA_Y496]	Satisfied
VNLVLHLSIAK [FBXO15_Y496_Y496H]	Satisfied
VRRRSYSAGNA [KANK1_Y324_K321R]	Satisfied
KNGSNYVVKGN [KIT_Y823_D820G]	Satisfied

---

- Test system: AncSZ
- Assay Comment: phosphorylation enrichment, bacterial display (enrichment ratio); higher = better substrate or ligand; peptides without Tyr show the background
Quick reference for phosphorylation enrichment among some sequences
Quantity: phosphorylation enrichment

Chain	Quantity	Numeric Readout
RYVTRSIYNRE [HLA-DQB1_Y62_Y62S]	phosphorylation enrichment	0.772
PYYTSYPPSPD [GDAP2_Y491]	phosphorylation enrichment	1.38
QADVIYVNTQL [MERTK_Y872]	phosphorylation enrichment	1.61
WVFNHYRCIIW [BRCA2_Y2624_W2626C_YF]	phosphorylation enrichment	1.28
SGGMDYGMVGG [TNRC6B_Y1382]	phosphorylation enrichment	0.571
QGLRLYRPHLA [BTK_Y617]	phosphorylation enrichment	1.16
KPMDTYYDSTR [DYNC2H1_Y2230]	phosphorylation enrichment	0.874
DRFDNYIEKVR [DES_Y122_A120D]	phosphorylation enrichment	0.709
EFISEHCGEII [EZH2_Y641_Y641H]	phosphorylation enrichment	1.35
QELRRYLKSSV [MICA_Y194_G198S]	phosphorylation enrichment	0.543
IINENYDYLKV [NUP98_Y1664_G1669V]	phosphorylation enrichment	1.38
KQLYAYKMLMA [TMC2_Y209]	phosphorylation enrichment	0.629
SKLTIYDARPS [MTM1_Y277]	phosphorylation enrichment	0.779
DEEYEYMNRRR [ERBB3_Y1199]	phosphorylation enrichment	1.57
LITTLYIGFLG [KCNQ1_Y267]	phosphorylation enrichment	2.41
DEYLEYRRIVG [FAM221A_Y20]	phosphorylation enrichment	1.14
IKRIDYEFVEM [ADA_Y84_A83D]	phosphorylation enrichment	0.89
FGTAQYCCRMG [LRRK2_Y2023_I2020T_YF]	phosphorylation enrichment	0.663
GVKLTYGDAQS [SLC28A1_Y404_N409S]	phosphorylation enrichment	0.599
AGIVDYNIIGW [MYH7_Y588]	phosphorylation enrichment	1.07
GIFEDYVEGLR [MYL6_Y89_T85I_YF]	phosphorylation enrichment	1.25
KVIDMYLMGCF [GABRB2_Y308_A304V]	phosphorylation enrichment	1.28
EYYENYIEELK [PARP4_Y218_F215Y]	phosphorylation enrichment	2.04
QPSPSYDSSRG [TCF12_Y70]	phosphorylation enrichment	0.68
REVPVYTDSEP [FAM120B_Y368]	phosphorylation enrichment	1.35
DKVFTYIFIME [SCN4A_Y1074]	phosphorylation enrichment	1.32
HNLYSYPTKHE [MYO3A_Y1396]	phosphorylation enrichment	3.92
SAASGYSDVTD [DTX2_Y425_T421A]	phosphorylation enrichment	0.866
ISSLRYELLEE [TRPC6_Y896]	phosphorylation enrichment	1.24
KPEKTYGLRNE [CEP43_Y267_K271N]	phosphorylation enrichment	0.494
SKGFAYVHFDS [PABPC5_Y149_YF]	phosphorylation enrichment	0.814
FQLENCCNGGG [INS_Y108_Y108C_YF]	phosphorylation enrichment	0.896
VDGSLYKTHPQ [HK1_Y417]	phosphorylation enrichment	0.472
ELSDGYWVVSN [TPP1_Y459_A454E]	phosphorylation enrichment	1.39
IQKKYYRAILE [CHD7_Y1218]	phosphorylation enrichment	0.649
AEFGLYGAMVR [VSX2_Y222_YF]	phosphorylation enrichment	1.07
RHTRSYDYTEG [FGF7_Y56_M59T]	phosphorylation enrichment	0.521
DFPGIYSGYDD [POLR1C_Y33_N32I]	phosphorylation enrichment	1.09
DGTGHYLCNAC [GATA5_Y208]	phosphorylation enrichment	0.625
GGQEDYDRLRP [RAC3_Y64_A59G]	phosphorylation enrichment	1.17
MENFIYESMRF [CYP19A1_Y361_YF]	phosphorylation enrichment	1.3
FSALDYKIFYY [WDPCP_Y210_L205F]	phosphorylation enrichment	1.38
RNGNRYFKGIV [DCX_Y64_D62N]	phosphorylation enrichment	1.33
GCVSKYSGVFS [TUBGCP6_Y1624]	phosphorylation enrichment	0.815
IVWDSYTTNKV [GNB3_Y85]	phosphorylation enrichment	1
FADIAYNFHHG [PAH_Y166_R169H_YF]	phosphorylation enrichment	0.686
RVSSVYTRSTG [CCR5_Y339_A335V]	phosphorylation enrichment	1.18
YSSLGYPPPEG [ZSWIM4_Y87]	phosphorylation enrichment	0.741
EEQKKYFNAVK [SCN5A_Y1494_M1498V_YF]	phosphorylation enrichment	0.832
FSAPNCCYRCG [PPP2CA_Y265_Y265C]	phosphorylation enrichment	1
QEIATYRRLRE [KRT17_Y384_L388R]	phosphorylation enrichment	0.734
ILLAGYLVMVI [SLC28A3_Y113]	phosphorylation enrichment	1.35
LTQRTYMSENA [GPAA1_Y49]	phosphorylation enrichment	0.636
SVTCTYSPALF [TP53_Y126_N131Y_YF]	phosphorylation enrichment	1.51
LNLDTYQKRLR [PLA2G2D_Y126_R121L]	phosphorylation enrichment	0.517
GYGGGYGGVLT [KRT19_Y65_A60G]	phosphorylation enrichment	0.556
VSKGGYFSVNL [C3orf33_Y164]	phosphorylation enrichment	0.875
PADRAYSWFQH [NDST1_Y711_YF]	phosphorylation enrichment	1.14
